Can you tell me Ki for the items I'm about to list?
# Experimental target: UniProt:P62942
# Assay name: Ki test procedure: inhibition of peptidyl-prolyl isomerase (rotamase) activity, chymotrypsin-coupled assay
# Assay type: biochemical
# Test context: apparent Ki, Table II (a), ranked potency

Completed entries (count: 2):
O=C(SCCCc1cccnc1)[C@@H]1CCCN1C(=S)NC1CCCCC1 = 51 to 200 nM
CCC(C)(C)NC(=O)N1CCC[C@H]1C(=O)SCCCc1cccnc1 = 51 to 200 nM

Please look at the following molecule next.
Give its Ki value. Item: CCC(C)CNC(=O)N1CCC[C@H]1C(=O)SCCCc1cccnc1 (stereo partly drawn)
1 to 50 nM

====

# Experimental target: FKBP (Homo sapiens)
# Sequence (P62942 whole entry): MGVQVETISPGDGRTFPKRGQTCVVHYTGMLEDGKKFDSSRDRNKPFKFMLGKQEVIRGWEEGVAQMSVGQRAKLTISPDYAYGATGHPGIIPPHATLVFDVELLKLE
# Assay name: Ki test procedure: inhibition of peptidyl-prolyl isomerase (rotamase) activity, chymotrypsin-coupled assay
# Format: biochemical
# Test context: apparent Ki, Table II (c), numerical
Assignment: determine reported Ki for the given compounds.
Answers are plain numbers, in nM.

# annotated cases, reported Ki shown
O=C(SCCCc1ccccc1)[C@@H]1CCCN1C(=S)NC12CC3CC(CC(C3)C1)C2 = 659
O=C(SCCCc1ccccc1Cl)[C@@H]1CCCN1C(=O)NC1CCCCC1 = 1490

Please find the next compound below.
Look up Ki: O=C(SCCCc1ccccc1)[C@@H]1CCCN1C(=O)N1CCOCC1
3740

Values compiled from patent US20020049199A1.
